# System: SW1990 pancreatic adenocarcinoma cells [homozygous G12D]
# TEST DETAILS: Cancer cell line proliferation (CellTiter-Glo), SW1990
# Format: cell-based
# RECORDED CONDITIONS: Homo sapiens, 72 hr treatment, read-out: SW1990 CTG (EC50)
READOUT LABEL: EC50

Measured on SW1990 pancreatic adenocarcinoma cells [homozygous G12D], C#Cc1c(F)ccc2cc(O)cc(-c3ncc4c(N5CC6CCC(C5)N6)nc(OCC5CN(Cc6ccc(-n7c(C(=O)NC(C)C(F)(F)F)nnc7-c7cc(C(C)C)c(O)cc7O)cc6)C5)nc4c3F)c12 (stereo not shown) [Compound 174] has a documented EC50 of > 1000 nM

Measured on SW1990 pancreatic adenocarcinoma cells [homozygous G12D], C#Cc1c(F)ccc2cc(O)cc(-c3ncc4c(N5CC6CCC(C5)N6)nc(OCC5(CN6CCC7(CCN(Cc8ccc9c(c8)CN(C(=O)c8cc(C(C)C)c(O)cc8O)C9)CC7)CC6)CC5)nc4c3F)c12 [Compound 184] has a documented EC50 of < 100 nM

Measured on SW1990 pancreatic adenocarcinoma cells [homozygous G12D], C#Cc1c(F)ccc2cc(O)cc(-c3nc(OC)c4c(N5CC6CCC(C5)N6)nc(OCC5(CN6CCC(C7CCN(Cc8ccc(-n9c(C(=O)NC(C)C(F)(F)F)nnc9-c9cc(C(C)C)c(O)cc9O)cc8)CC7)CC6)CC5)nc4c3F)c12 (stereo not shown) [Compound 182] has a documented EC50 of < 100 nM

Measured on SW1990 pancreatic adenocarcinoma cells [homozygous G12D], C#Cc1cccc2cc(O)cc(-c3ncc4c(N5CC6CCC(C5)N6)nc(OCC5(CN6CCN(C(=O)C7CCN(Cc8ccc9c(c8)CN(C(=O)c8cc(C(C)C)c(O)cc8O)C9)CC7)CC6)CC5)nc4c3F)c12 [Compound 157] has a documented EC50 of 100 to 1000 nM

----------
# Test system: AGS gastric carcinoma cells [heterozygous G12D]
# TEST DETAILS: Cancer cell line proliferation (CellTiter-Glo), AGS
# Type: cell-based
# RECORDED CONDITIONS: Homo sapiens, 72 hr treatment, read-out: AGS CTG (EC50)
pEC50: −log10 of the molar value.
Exercise: for every item that follows, state its recorded pEC50.

Note to self: pEC50 recorded for CC(C)c1cc(C(=O)N2Cc3ccc(CN4CCN([C@H]5C[C@@H](COc6nc(N7CC8CCC(C7)N8)c7cnc(-c8cc(O)cc9ccccc89)c(F)c7n6)N(C)C5)CC4)cc3C2)c(O)cc1O was > 7.00

Note to self: pEC50 recorded for C#Cc1c(F)ccc2cc(O)cc(-c3ncc4c(N5CC6CCC(C5)N6)nc(OCC5(CN6CCN(CC7CCN(Cc8ccc(-n9c(C(=O)NCC(F)(F)F)nnc9-c9cc(C(C)C)c(O)cc9O)cc8)CC7)CC6)CC5)nc4c3F)c12 was > 7.00

----------
Exercise: for every item that follows, state its recorded pEC50.
# System: AGS gastric carcinoma cells [heterozygous G12D]
# TEST DETAILS: Cancer cell line proliferation (CellTiter-Glo), AGS
# Type: cell-based
# RECORDED CONDITIONS: Homo sapiens, 72 hr treatment, read-out: AGS CTG (EC50)
pEC50: −log10 of the molar value.

Note to self: pEC50 recorded for C#Cc1c(F)ccc2cc(O)cc(-c3ncc4c(N5CC6CNC(C6)C5)nc(OCC5(CN6CCN(C7CCN(Cc8ccc(-n9c(C(=O)NC(C)C(F)(F)F)nnc9-c9cc(C(C)C)c(O)cc9O)cc8)CC7)CC6)CC5)nc4c3F)c12 (centres unmarked) [Compound 188] was 6.00 to 7.00

Note to self: pEC50 recorded for C#Cc1c(F)ccc2cc(O)cc(-c3nc(OC)c4c(N5CC6CNC(C6)C5)nc(OCC5(CN6CCN(Cc7ccc(-n8c(C(=O)NCC)nnc8-c8cc(C(C)C)c(O)cc8O)cc7)CC6)CC5)nc4c3F)c12 (centres unmarked) [Compound 189] was > 7.00
